Target: UniProt P35414
Sequence (P35414 whole entry): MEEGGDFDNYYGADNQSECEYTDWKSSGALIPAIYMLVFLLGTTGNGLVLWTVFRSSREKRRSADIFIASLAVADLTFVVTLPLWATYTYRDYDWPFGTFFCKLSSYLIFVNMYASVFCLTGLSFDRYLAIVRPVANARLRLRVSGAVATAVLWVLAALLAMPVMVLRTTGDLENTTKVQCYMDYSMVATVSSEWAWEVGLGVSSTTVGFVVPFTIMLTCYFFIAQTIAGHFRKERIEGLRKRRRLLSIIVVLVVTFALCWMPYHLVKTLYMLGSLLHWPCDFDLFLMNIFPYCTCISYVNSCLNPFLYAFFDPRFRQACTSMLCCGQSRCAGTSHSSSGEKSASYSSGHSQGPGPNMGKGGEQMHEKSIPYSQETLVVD
Assay: In vitro apelin agonist activity (methods of Giddings et al., Apelin-13 as positive control)
Format: cell-based
Details: in vitro apelin agonist activity, methods of Giddings et al., Apelin-13 as positive control; read-out: EC50 (nM) Ave
Attribute Measured: EC50 (nM)
Just the number in nM, nothing appended.

| Compound | Scale Unit | EC50 |
| --- | --- | --- |
| CC(F)(F)c1ccccc1-c1cc(C(=O)N[C@@H](CCN2CCCC(F)(F)C2)CC(=O)O)nn1C1CCCC1 | nM | 16 |
| O=C(O)C[C@H](CCN1CCC[C@H](F)C1)NC(=O)c1cc(-c2ccccc2C(F)(F)F)n(C2CCCC2)n1 | nM | 302 |
| COc1cccc(OC)c1-c1cc(C(=O)N[C@@H](CCN2CCCCC2)Cc2nnc[nH]2)nn1C1CCCC1 | nM | 200 |
| O=C(C[C@H](CC(=O)N1CCCC(F)(F)C1)NC(=O)c1cc(-c2ccccc2C(F)(F)F)n(C2CCCC2)n1)NC1CCC1 | nM | 47 |
| COc1cccc(OC)c1-c1cc(C(=O)N[C@@H](CCc2cccnc2)CC(=O)NC2CCC2)nn1C1CCCC1 | nM | 883 |
| COc1cccc(OC)c1-c1cc(C(=O)N[C@@H](CCN2C(C)CCCC2C)CC(=O)NC2CCC2)nn1C1CCCC1 (some centres unmarked) | nM | 170 |
| O=C(O)C[C@H](CCN1CC(F)CC(F)C1)NC(=O)c1cc(-c2ccccc2C(F)(F)F)n(C2CCCC2)n1 (some centres unmarked) | nM | 40 |
| Cc1nnc(C[C@H](CCc2ccc(F)cc2)NC(=O)c2cc(-c3ccccc3C(F)(F)F)n(C3CCCC3)n2)[nH]1 | nM | 1140 |

Here "CN(CC[C@@H](CC(=O)NC1CCC1)NC(=O)c1cc(-c2ccccc2C(F)(F)F)n(C2CCCC2)n1)C1CCCC1" was tested on UniProt P35414, and its EC50 came to 10.3

Here "O=C(C[C@H](CCN1CCCCC1)NC(=O)c1cc(-c2ccccc2OC(F)(F)F)n(C2CCCC2)n1)NC1CCC1" was tested on UniProt P35414, and its EC50 came to 271

Here "NNC(=O)C[C@H](CCc1ccc(F)cc1)NC(=O)c1cc(-c2ccccc2C(F)(F)F)n(C2CCCC2)n1" was tested on UniProt P35414, and its EC50 came to 1040
